We begin with a simple list: items and their reported kon.
target: T1, EGFR extracellular domain (with an amino acid sequence of 25-645) (human, UniProt P00533 25-645); assay: SPR, Biacore T200; EGFR extracellular domain on CM5 chip, rLZ-8 protein as analyte
T1 construct: range 25-645; Coupled on a CM5 chip; also called epidermal growth factor receptor extracellular domain; ligand (on the chip)
Report as a plain number; the unit M⁻¹ s⁻¹ is understood.

These recorded examples may help you get a feel for the data.
Binder	Unit abbrev	Endpoint result
rLZ-8 (K46E/K74E) (other, Mutant of rLZ-8) MSDTALIFRLAWDVKKLSFDYTPNWGRGNPNNFIDTVTFPKVLTDEAYTYRVAVSGRNLGVKPSYAVESDGSQEVNFLEYNSGYGIADTNTIQVFVVDPDTNNDFIIAQWN	M⁻¹ s⁻¹	65700
rLZ-8 (L17K/D70K) (other, Surface potential mutant of rLZ-8) MSDTALIFRLAWDVKKKSFDYTPNWGRGNPNNFIDTVTFPKVLTDKAYTYRVAVSGRNLGVKPSYAVESKGSQKVNFLEYNSGYGIADTNTIQVFVVDPDTNNDFIIAQWN	M⁻¹ s⁻¹	215000

I am curious: what kon value has been reported for rLZ-8 (K16A/K41A) (other, Alanine mutant of rLZ-8) MSDTALIFRLAWDVKALSFDYTPNWGRGNPNNFIDTVTFPAVLTDKAYTYRVAVSGRNLGVKPSYAVESDGSQKVNFLEYNSGYGIADTNTIQVFVVDPDTNNDFIIAQWN ?
220

Again, but for rLZ-8 (D70K) (other, Surface potential mutant of rLZ-8) MSDTALIFRLAWDVKKLSFDYTPNWGRGNPNNFIDTVTFPKVLTDKAYTYRVAVSGRNLGVKPSYAVESKGSQKVNFLEYNSGYGIADTNTIQVFVVDPDTNNDFIIAQWN
203000
